protocol.details: isobaric coefficient of expansion
protocol.conditions: 328.15 K; 20000 kPa; Liquid; DSC
property.name: isobaric coefficient of expansion

>>> recorded_value("CCCCCCCCCCCCCC")
"0.000833 1/K"
>>> recorded_value("ClC(Cl)(Cl)Cl")
"0.00114 1/K"
>>> recorded_value("CCCCCCCCCCCC")
"0.000884 1/K"
>>> recorded_value("CCCCCCCCC")
"0.000984 1/K"
>>> recorded_value("CCCCCCCCCCCCC")
"0.000844 1/K"
>>> recorded_value("CCCCCCCCCCCCCCC")
"0.000823 1/K"
>>> recorded_value("CCCCCCCCCC")
"0.000942 1/K"
>>> recorded_value("CCCCCCCCCCC")
"0.000909 1/K"

Pending compound:
### Prompt Suppose we examine the compound "c1ccccc1" ; what isobaric coefficient of expansion value has been reported?
### Response 0.00113 1/K

---

protocol.details: isobaric coefficient of expansion
protocol.conditions: 338.15 K; 50000 kPa; Liquid; DSC
property.name: isobaric coefficient of expansion

>>> recorded_value("ClC(Cl)(Cl)Cl")
"0.000967 1/K"

Please look at the items below and tell me isobaric coefficient of expansion for each one, in order.
1. CCCCCCCCC
2. CCCCCCCCCCCCCC
3. CCCCCCCCCCCCCCC
4. CCCCCCCCCCC
5. c1ccccc1
6. CCCCCCCCCCCC
7. CCCCCCCCCCCCC

### Response
1. 0.000825 1/K
2. 0.000718 1/K
3. 0.00071 1/K
4. 0.000771 1/K
5. 0.000966 1/K
6. 0.000754 1/K
7. 0.000728 1/K

### Prompt Suppose we examine the compound "CCCCCCCCCC" ; what isobaric coefficient of expansion value has been reported?
### Response 0.000796 1/K

---

protocol.details: isobaric coefficient of expansion
protocol.conditions: 278.15 K; 25000 kPa; Liquid; DSC
property.name: isobaric coefficient of expansion

>>> recorded_value("CCCCCCCCCC")
"0.000878 1/K"
>>> recorded_value("CCCCCCCCCCCC")
"0.000838 1/K"
>>> recorded_value("CCCCCCCCC")
"0.000907 1/K"
>>> recorded_value("CCCCCCCCCCC")
"0.000854 1/K"

Pending molecule:
### Prompt Suppose we examine the molecule "ClC(Cl)(Cl)Cl" ; what isobaric coefficient of expansion value has been reported?
### Response 0.00104 1/K

---

protocol.details: isobaric coefficient of expansion
protocol.conditions: 328.15 K; 35000 kPa; Liquid; DSC
property.name: isobaric coefficient of expansion

>>> recorded_value("CCCCCCCCCCCCCC")
"0.00077 1/K"
>>> recorded_value("CCCCCCCCCCCCC")
"0.000782 1/K"
>>> recorded_value("ClC(Cl)(Cl)Cl")
"0.00104 1/K"
>>> recorded_value("CCCCCCCCC")
"0.000892 1/K"
>>> recorded_value("CCCCCCCCCCCCCCC")
"0.000762 1/K"
>>> recorded_value("c1ccccc1")
"0.00104 1/K"
>>> recorded_value("CCCCCCCCCCCC")
"0.000813 1/K"
>>> recorded_value("CCCCCCCCCC")
"0.000862 1/K"

Pending compound:
### Prompt Suppose we examine the compound "CCCCCCCCCCC" ; what isobaric coefficient of expansion value has been reported?
### Response 0.000833 1/K

---

protocol.details: isobaric coefficient of expansion
protocol.conditions: 338.15 K; 45000 kPa; Liquid; DSC
property.name: isobaric coefficient of expansion

# example entries with known answers
>>> recorded_value("CCCCCCCCCCC")
"0.000789 1/K"
>>> recorded_value("ClC(Cl)(Cl)Cl")
"0.000988 1/K"
>>> recorded_value("c1ccccc1")
"0.000985 1/K"
>>> recorded_value("CCCCCCCCCC")
"0.000816 1/K"
>>> recorded_value("CCCCCCCCCCCCC")
"0.000741 1/K"

Please look at the items below and tell me isobaric coefficient of expansion for each one, in order.
1. CCCCCCCCCCCCCCC
2. CCCCCCCCC

### Response
1. 0.000724 1/K
2. 0.000846 1/K

Please look at the items below and tell me isobaric coefficient of expansion for each one, in order.
1. CCCCCCCCCCCC
2. CCCCCCCCCCCCCC

### Response
1: 0.000773 1/K; 2: 0.000732 1/K

---

protocol.details: isobaric coefficient of expansion
protocol.conditions: 308.15 K; 20000 kPa; Liquid; DSC
Field: isobaric coefficient of expansion. Provide a value for each of the compounds that follow.

# example entries with known answers
>>> recorded_value("c1ccccc1")
"0.00112 1/K"
>>> recorded_value("CCCCCCCCC")
"0.000962 1/K"
>>> recorded_value("CCCCCCCCCCCCC")
"0.000835 1/K"

Please look at the items below and tell me isobaric coefficient of expansion for each one, in order.
1. ClC(Cl)(Cl)Cl
2. CCCCCCCCCCC
3. CCCCCCCCCCCC
4. CCCCCCCCCCCCCC
5. CCCCCCCCCC
6. CCCCCCCCCCCCCCC

### Response
["0.00111 1/K", "0.000897 1/K", "0.000874 1/K", "0.000836 1/K", "0.000928 1/K", "0.000824 1/K"]

---

protocol.details: isobaric coefficient of expansion
protocol.conditions: 328.15 K; 25000 kPa; Liquid; DSC
property.name: isobaric coefficient of expansion

# example entries with known answers
>>> recorded_value("CCCCCCCCCCCC")
"0.000859 1/K"
>>> recorded_value("CCCCCCCCCCCCCC")
"0.00081 1/K"
>>> recorded_value("CCCCCCCCCC")
"0.000915 1/K"
>>> recorded_value("CCCCCCCCC")
"0.000949 1/K"
>>> recorded_value("c1ccccc1")
"0.0011 1/K"
>>> recorded_value("CCCCCCCCCCC")
"0.000884 1/K"
>>> recorded_value("ClC(Cl)(Cl)Cl")
"0.0011 1/K"
>>> recorded_value("CCCCCCCCCCCCCCC")
"0.000798 1/K"

### Prompt Suppose we examine the compound "CCCCCCCCCCCCC" ; what isobaric coefficient of expansion value has been reported?
### Response 0.00082 1/K

---

protocol.details: isobaric coefficient of expansion
protocol.conditions: 318.15 K; 5000 kPa; Liquid; DSC
property.name: isobaric coefficient of expansion

>>> recorded_value("CCCCCCCCCCCCCC")
"0.000918 1/K"

Please look at the items below and tell me isobaric coefficient of expansion for each one, in order.
1. CCCCCCCCCCCC
2. CCCCCCCCCCCCCCC

### Response
1: 0.000964 1/K; 2: 0.000901 1/K

Please look at the items below and tell me isobaric coefficient of expansion for each one, in order.
1. c1ccccc1
2. ClC(Cl)(Cl)Cl
3. CCCCCCCCC
4. CCCCCCCCCCC
5. CCCCCCCCCC
6. CCCCCCCCCCCCC

### Response
1: 0.00123 1/K; 2: 0.00124 1/K; 3: 0.00108 1/K; 4: 0.000993 1/K; 5: 0.00103 1/K; 6: 0.000919 1/K

---

protocol.details: isobaric coefficient of expansion
protocol.conditions: 308.15 K; 35000 kPa; Liquid; DSC
property.name: isobaric coefficient of expansion

# example entries with known answers
>>> recorded_value("CCCCCCCCCCCC [dodecane]")
"0.00081 1/K"
>>> recorded_value("CCCCCCCCCC [decane]")
"0.000856 1/K"

Pending compound:
### Prompt Suppose we examine the compound CCCCCCCCCCC [undecane] ; what isobaric coefficient of expansion value has been reported?
### Response 0.000828 1/K

---

protocol.details: isobaric coefficient of expansion
protocol.conditions: 298.15 K; 20000 kPa; Liquid; DSC
Field: isobaric coefficient of expansion. Provide a value for each of the compounds that follow.

>>> recorded_value("CCCCCCCCCCCCC [tridecane]")
"0.000828 1/K"

Please look at the items below and tell me isobaric coefficient of expansion for each one, in order.
1. CCCCCCCCCCC [undecane]
2. CCCCCCCCCCCC [dodecane]
3. CCCCCCCCCCCCCC [tetradecane]
4. ClC(Cl)(Cl)Cl [tetrachloromethane]

### Response
["0.00089 1/K", "0.000869 1/K", "0.000837 1/K", "0.00109 1/K"]

---

Field: isobaric coefficient of expansion. Provide a value for each of the molecules that follow.
protocol.details: isobaric coefficient of expansion
protocol.conditions: 348.15 K; 10000 kPa; Liquid; DSC

# example entries with known answers
>>> recorded_value("c1ccccc1 [benzene]")
"0.00125 1/K"
>>> recorded_value("ClC(Cl)(Cl)Cl [tetrachloromethane]")
"0.00126 1/K"
>>> recorded_value("CCCCCCCCCCCC [dodecane]")
"0.000958 1/K"
>>> recorded_value("CCCCCCCCCCCCCCC [pentadecane]")
"0.000886 1/K"

### Prompt Suppose we examine the molecule CCCCCCCCC [nonane] ; what isobaric coefficient of expansion value has been reported?
### Response 0.00109 1/K
